test.system: ER (Homo sapiens (Human))
Sequence (P03372 whole entry): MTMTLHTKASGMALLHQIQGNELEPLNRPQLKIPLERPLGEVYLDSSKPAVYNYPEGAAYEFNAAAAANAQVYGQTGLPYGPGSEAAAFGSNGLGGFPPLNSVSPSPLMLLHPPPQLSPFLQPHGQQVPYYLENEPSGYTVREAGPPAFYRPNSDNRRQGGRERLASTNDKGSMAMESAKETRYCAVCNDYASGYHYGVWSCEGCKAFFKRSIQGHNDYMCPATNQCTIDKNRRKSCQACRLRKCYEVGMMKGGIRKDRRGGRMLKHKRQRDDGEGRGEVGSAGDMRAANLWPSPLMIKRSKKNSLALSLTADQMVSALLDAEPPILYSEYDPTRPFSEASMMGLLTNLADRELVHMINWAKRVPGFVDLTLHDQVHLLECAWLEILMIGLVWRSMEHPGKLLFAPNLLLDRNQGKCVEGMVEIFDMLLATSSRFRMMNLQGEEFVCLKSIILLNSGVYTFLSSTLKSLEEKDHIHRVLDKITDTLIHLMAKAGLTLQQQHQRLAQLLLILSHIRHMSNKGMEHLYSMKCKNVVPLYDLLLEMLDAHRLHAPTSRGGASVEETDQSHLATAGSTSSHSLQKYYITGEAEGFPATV
test.protocol: In-cell western blot analysis of ER for "B" compounds
Assay type: cell-based
experimental.setup: 16 hours, read-out: ICW DC50
endpoint.label: DC50

[[record]]
molecule = "O=C1CCC(N2Cc3cc4c(cc3C2=O)OC[C@@H]2CN(CC(=O)N3CC5(C3)CN(c3ccc([C@@H]6c7ccc(O)cc7CC[C@@H]6c6ccccc6)cc3)C5)CCN42)C(=O)N1 (stereo partly shown)"
value_observed = "< 0.01 µM"

[[record]]
molecule = "O=C1CCC(N2Cc3cc4c(cc3C2=O)OC[C@@H]2CN(CC(=O)N3CCC5(CC3)CN(c3ccc([C@@H]6c7ccc(O)cc7CC[C@@H]6c6ccccc6)cc3)C5)CCN42)C(=O)N1 (stereo partly shown)"
value_observed = "< 0.01 µM"

[[record]]
molecule = "O=C1CCC(N2Cc3c(ccc4c3OCC43CCN(CC(=O)OC4CCN(c5ccc([C@@H]6c7ccc(O)cc7CC[C@@H]6c6ccccc6)cc5)CC4)CC3)C2=O)C(=O)N1 (stereo partly shown)"
value_observed = "> 0.1 µM"

[[record]]
molecule = "O=C1CCC(N2Cc3cc4c(cc3C2=O)OC[C@@H]2CN(C(=O)CN3CC(Nc5ccc([C@@H]6c7ccc(O)cc7CC[C@@H]6c6ccccc6)cc5)C3)CCN42)C(=O)N1 (stereo partly shown)"
value_observed = "< 0.01 µM"

[[record]]
molecule = "O=C1CCC(N2Cc3c(ccc4c3OC[C@H]3CN(CC5CC6CN(c7ccc([C@@H]8c9ccc(O)cc9CC[C@@H]8c8ccccc8)cc7)CC6C5)CCN43)C2=O)C(=O)N1 (stereo partly shown)"
value_observed = "> 0.1 µM"

[[record]]
molecule = "O=C1CCC(N2Cc3cc4c(cc3C2=O)OC[C@@H]2CN(CC(=O)OC3CCN(c5ccc([C@@H]6c7ccc(O)cc7CC[C@@H]6c6ccccc6)cc5)CC3)CCN42)C(=O)N1 (stereo partly shown)"
value_observed = "< 0.01 µM"

[[record]]
molecule = "O=C1CCC(N2C(=O)c3cc4c(cc3C2=O)CN(CC(=O)N2CC3(CC(Nc5ccc([C@@H]6c7ccc(O)cc7CC[C@@H]6c6ccccc6)cc5)C3)C2)C4)C(=O)N1 (stereo partly shown)"
value_observed = "< 0.01 µM"

[[record]]
molecule = "O=C1CCC(Nc2ccc(C3CCN(CC4COC5(CCN(c6ccc([C@@H]7c8ccc(O)cc8CC[C@@H]7c7ccccc7)cc6)CC5)C4)CC3)cc2)C(=O)N1 (stereo partly shown)"
value_observed = "> 0.1 µM"

[[record]]
molecule = "O=C1CC[C@H](NC(=O)c2ccc3c(n2)OC[C@H]2CN(CC4COC5(CCN(c6ccc([C@@H]7c8ccc(O)cc8CC[C@@H]7c7ccccc7)cc6)CC5)OC4)CCN32)C(=O)N1"
value_observed = "0.01 to 0.1 µM"

[[record]]
molecule = "O=C1CCC(N2Cc3c(ccc4c3OCC43CCN(C(=O)CN4CCC5(C4)CN(c4ccc([C@@H]6c7ccc(O)cc7CC[C@@H]6c6ccccc6)cc4)C5)CC3)C2=O)C(=O)N1 (stereo partly shown)"
value_observed = "< 0.01 µM"


Numbers sourced from patent US20260028354A1.
